target_or_test_system: human MRGPRD (Homo sapiens, UniProt Q8TDS7)
Sequence (Q8TDS7 whole entry): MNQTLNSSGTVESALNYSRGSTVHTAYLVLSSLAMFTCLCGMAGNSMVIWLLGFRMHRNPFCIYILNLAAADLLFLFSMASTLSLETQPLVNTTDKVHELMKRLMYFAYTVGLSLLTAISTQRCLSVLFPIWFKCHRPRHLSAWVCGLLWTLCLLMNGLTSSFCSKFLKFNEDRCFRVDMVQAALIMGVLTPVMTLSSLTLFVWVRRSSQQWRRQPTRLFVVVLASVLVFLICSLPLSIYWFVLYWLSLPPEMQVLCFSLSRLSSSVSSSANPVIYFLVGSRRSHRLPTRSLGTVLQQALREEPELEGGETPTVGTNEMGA
assay_info: MRGPRD antagonist activity, IP-One HTRF assay in CHO cells stably expressing human MRGPRD (versus 100 μM β-Alanine agonist)
pIC50: −log10 of the molar value.
For each of the compounds below, state its pIC50.

Recorded results for 7 compounds are shown here.
{"smiles_structure": "Cn1ncc2c(NC(=O)c3nnn(-c4ccc(-c5ccccc5)cc4)c3C3CC3)ncnc21", "pIC50": "< 5.52"}
{"smiles_structure": "Cc1cc(NC(=O)c2nnn(-c3ccc(-c4ccccc4)cn3)c2C2CC2)ccn1", "pIC50": "6.00 to 6.30"}
{"smiles_structure": "Cc1c2c(NC(=O)c3nnn(-c4ccc(-c5ccccc5)cc4)c3C3CC3)nccc2nn1C", "pIC50": "5.52 to 6.00"}
{"smiles_structure": "COc1cccc(-c2cccc(-n3nnc(C(=O)Nc4ccncc4)c3C3CC3)c2)c1", "pIC50": "5.52 to 6.00"}
{"smiles_structure": "CCn1cc(NC(=O)c2nnn(-c3ccc(-c4ccccc4)cc3)c2C2CC2)cn1", "pIC50": "5.52 to 6.00"}
{"smiles_structure": "CCc1cc(NC(=O)c2nnn(-c3ccc(-c4c(C)nn5cccnc45)cc3)c2C2CC2)ccn1", "pIC50": "6.30 to 7.00"}
{"smiles_structure": "CCc1cccc(-c2ccc(-n3nnc(C(=O)Nc4ccncc4)c3C3CC3)cc2)c1", "pIC50": "6.30 to 7.00"}

Now consider a different compound.
Name the reported pIC50 value associated with the compound COc1cc(C#N)ccc1-c1ccc(-n2nnc(C(=O)NCc3ccc(C)nc3)c2C2CC2)cc1 6.30 to 7.00

---

target_or_test_system: human MRGPRD (Homo sapiens)
assay_info: MRGPRD antagonist activity, IP-One HTRF assay in CHO cells stably expressing human MRGPRD (versus 100 μM β-Alanine agonist)
For each of the molecules below, state its IC50.

Recorded results for 4 molecules are shown here.
{"molecule": "O=C(Nc1ccncc1)c1nnn(-c2cccc(-c3ccccc3Cl)c2)c1C1CC1", "IC50": "1000 to 3000 nM"}
{"molecule": "CC(NC(=O)c1nnn(-c2ccc(-c3ccccc3)cc2)c1C1CC1)c1cnn(C)c1 (centres unmarked)", "IC50": "> 3000 nM"}
{"molecule": "Cc1nn(C)c(C)c1-c1ccc(-n2nnc(C(=O)NC3(c4cccnc4)CC3)c2C2CC2)cc1", "IC50": "1000 to 3000 nM"}
{"molecule": "Cc1nn(C)c(C)c1-c1ccc(-n2nnc(C(=O)NCc3ccc(C(C)C)nc3)c2C2CC2)cc1", "IC50": "100 to 500 nM"}

Could you tell me IC50 for each of these molecules? They are listed below.
1. Cc1ccc(-n2nnc(C(=O)Nc3ccncc3)c2C2CC2)cc1O
2. Cc1cc(NC(=O)c2nnn(-c3cccc(-c4c(C)nn(C)c4C)c3)c2C2CC2)ccn1
3. CC(=O)c1ccc(-c2ccc(-n3nnc(C(=O)Nc4ccncc4)c3C3CC3)cc2)c(C)c1
4. Cc1cnn(C)c1-c1ccc(-n2nnc(C(=O)Nc3ccncc3)c2C2CC2)cc1

1. 1000 to 3000 nM
2. 1000 to 3000 nM
3. 100 to 500 nM
4. 100 to 500 nM

---

target_or_test_system: human MRGPRD (Homo sapiens)
assay_info: MRGPRD antagonist activity, IP-One HTRF assay in CHO cells stably expressing human MRGPRD (versus 100 μM β-Alanine agonist)
pIC50: −log10 of the molar value.
measurement_label: pIC50

Could you tell me pIC50 for each of these compounds? They are listed below.
1. O=C(Nc1ccncc1)c1nnn(-c2ccc(-c3ccc(O)cc3)cc2)c1C1CC1 [Compound 7-58]
2. Cc1ccc(CNC(=O)c2nnn(-c3ccc(-c4c(C)nn(C)c4C)cc3F)c2C2CC2)cn1 [Compound 21-1]
3. COc1cc(-c2ccc(-n3nnc(C(=O)Nc4ccncc4)c3C3CC3)cc2)n[nH]1 [Compound 7-138]
4. CCc1cc(NC(=O)c2nnn(-c3ccc(-c4c(C)nn(-c5ccccc5)c4C)cc3)c2C2CC2)ccn1 [Compound 9-3]
5. Cc1cc(NC(=O)c2nnn(-c3ccc(-c4ccc(C#N)cc4)cc3F)c2C(C)C)ccn1 [Compound 17-14]
6. Cc1nn(C)c(C)c1-c1ccc(-n2nnc(C(=O)Nc3cccc(C#N)c3)c2C(C)C)cc1 [Compound 17-18]
7. O=C(Nc1ccncc1)c1nnn(CC(F)(F)F)c1C1CC1 [Compound 6-3]

6.30 to 7.00
> 7.00
6.00 to 6.30
> 7.00
6.30 to 7.00
6.30 to 7.00
6.00 to 6.30

---

target_or_test_system: human MRGPRD (Homo sapiens)
assay_info: MRGPRD antagonist activity, IP-One HTRF assay in CHO cells stably expressing human MRGPRD (versus 100 μM β-Alanine agonist)
measurement_label: IC50

{"molecule": "CC(C)c1c(C(=O)Nc2ccncc2)nnn1-c1ccc(-c2cnn(C)c2)cc1 [Compound 17-27]", "measurement_label": "IC50", "result": "500 to 1000 nM"}
{"molecule": "Cc1cc(NC(=O)c2nnn(C3CC=C(c4ccc(CC#N)cc4)CC3)c2C2CC2)ccn1 (stereo not shown) [Compound 12-7]", "measurement_label": "IC50", "result": "1000 to 3000 nM"}
{"molecule": "Cc1ccc(CNC(=O)c2nnn(-c3cccc(-c4cnn(C5CC5)c4)c3)c2C2CC2)cn1 [Compound 7-333]", "measurement_label": "IC50", "result": "> 3000 nM"}

Could you tell me IC50 for each of these molecules? They are listed below.
1. COc1ccc(-c2cccc(-n3nnc(C(=O)Nc4ccncc4)c3C3CC3)c2)cc1 [Compound 7-268]
2. CC(C)c1c(C(=O)NC2(c3cccnc3)CC2)nnn1-c1ccc(-c2ccc(C#N)nc2)cc1 [Compound 18-29]
3. Cc1nn(C)c2ncnc(NC(=O)c3nnn(-c4ccc(-c5ccccc5)cc4)c3C3CC3)c12 [Compound 14-14]
4. Cc1nn(C)c(C)c1-c1ccc(-n2nnc(C(=O)Nc3ccncc3)c2C2CC2)c(F)c1 [Compound 7-221]
5. O=C(Nc1ccncc1)c1nnn(-c2ccc(-c3cnsc3)cc2)c1C1CC1 [Compound 7-79]

["500 to 1000 nM", "> 3000 nM", "> 3000 nM", "< 100 nM", "100 to 500 nM"]

Could you tell me IC50 for each of these molecules? They are listed below.
1. CCn1nc(C)c(-c2ccc(-n3nnc(C(=O)NC4(c5cccnc5)CC4)c3C3CC3)cc2)c1C [Compound 19-2]
2. COc1ccc(-c2cccc(-n3nnc(C(=O)Nc4ccncc4)c3C3CC3)c2)c(F)c1 [Compound 7-247]
3. CC(=O)c1ccc(-c2cccc(-n3nnc(C(=O)Nc4ccncc4)c3C3CC3)c2)cc1 [Compound 7-274]
4. CCn1nc(C)c(-c2ccc(-n3nnc(C(=O)NCc4ccc(C(C)C)nc4)c3C3CC3)cc2)c1C [Compound 9-21]
5. Cn1cc(C(C)(C)NC(=O)c2nnn(-c3ccc(-c4ccccc4)cc3)c2C2CC2)cn1 [Compound 14-85]
6. Cc1ccc(-n2nnc(C(=O)Nc3ccncc3)c2C2CC2)c(C(F)(F)F)c1 [Compound 4-6]
7. COc1ccc(C2(NC(=O)c3nnn(-c4ccc(-c5ccc(C#N)cc5C)cc4)c3C3CC3)CC2)cn1 [Compound 9-24]

["100 to 500 nM", "500 to 1000 nM", "500 to 1000 nM", "100 to 500 nM", "> 3000 nM", "1000 to 3000 nM", "100 to 500 nM"]

Name the reported IC50 value associated with the molecule O=C(Nc1ccncc1)c1nnn(-c2cccc(-c3cnn(Cc4ccccc4)c3)c2)c1C1CC1 [Compound 7-270] 500 to 1000 nM

---

target_or_test_system: human MRGPRD (Homo sapiens)
assay_info: MRGPRD antagonist activity, IP-One HTRF assay in CHO cells stably expressing human MRGPRD (versus 100 μM β-Alanine agonist)
pIC50: −log10 of the molar value.
measurement_label: pIC50

{"compound": "O=C(Nc1ccncc1)c1nnn(-c2csc3ccccc23)c1C1CC1", "target_or_test_system": "human MRGPRD (Homo sapiens)", "pIC50": "5.52 to 6.00"}
{"compound": "Cc1cc(NC(=O)c2nnn(C3CC=C(c4ccc(C#N)cc4)CC3)c2C2CC2)ccn1 (centres unmarked)", "target_or_test_system": "human MRGPRD (Homo sapiens)", "pIC50": "6.30 to 7.00"}
{"compound": "Cc1nn(C)c(C)c1-c1ccc(-n2nnc(C(=O)Nc3ccncc3)c2C2CC2)c(C#N)c1", "target_or_test_system": "human MRGPRD (Homo sapiens)", "pIC50": "6.00 to 6.30"}
{"compound": "Cc1nn2cccnc2c1-c1ccc(-n2nnc(C(=O)Nc3ccncc3)c2C2CC2)cc1", "target_or_test_system": "human MRGPRD (Homo sapiens)", "pIC50": "6.30 to 7.00"}
{"compound": "Cc1nc(-c2ccc(-n3nnc(C(=O)Nc4ccncc4)c3C3CC3)cc2)sc1C", "target_or_test_system": "human MRGPRD (Homo sapiens)", "pIC50": "6.00 to 6.30"}
{"compound": "Cc1ccc(-n2nnc(C(=O)Nc3ccncc3)c2C2CC2)cc1C", "target_or_test_system": "human MRGPRD (Homo sapiens)", "pIC50": "5.52 to 6.00"}
{"compound": "Cn1cc(-c2ccc(-n3nnc(C(=O)Nc4ccncc4)c3C3CC3)cc2)cn1", "target_or_test_system": "human MRGPRD (Homo sapiens)", "pIC50": "6.00 to 6.30"}

Now consider a different compound.
Name the reported pIC50 value associated with the compound Cc1cc(NC(=O)c2nnn(-c3ccc(-c4c(C)nn(C)c4C)cc3)c2C(C)C)ccn1 > 7.00
